Entry source: patent US20260070976A1

Molecular target: T1, human PILRA G78 on HEK293F cells (human, UniProt Q9UKJ1 20-303)
T1 construct: also called hA; G78 OE
T1 sequence (Q9UKJ1 20-303 R78G): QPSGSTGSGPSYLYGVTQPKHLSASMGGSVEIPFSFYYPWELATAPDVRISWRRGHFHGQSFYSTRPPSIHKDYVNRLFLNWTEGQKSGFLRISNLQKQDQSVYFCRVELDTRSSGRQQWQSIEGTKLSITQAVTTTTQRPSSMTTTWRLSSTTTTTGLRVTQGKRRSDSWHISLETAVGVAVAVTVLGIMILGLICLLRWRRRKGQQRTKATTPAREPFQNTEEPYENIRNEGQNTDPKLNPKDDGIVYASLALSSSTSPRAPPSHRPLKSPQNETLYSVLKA
Assay: FACS on HEK293F cells, binding on human PILRA (hA) over human PILRB (hB)
Listed next: entries and their corresponding hA/hB binding ratio on HEK293F.
Write no unit; give the number alone.

Sample X18 (antibody, human IgG4, V domains shown, conditioned media in the HEK293F assays) VH: QVQLVQSGAEVKKPGSSVKVSCKASGYNFLHYDVNWVRQAPGQGLEWMGGIIPIFGTANYAQKFQGRVTITADESTSTAYMELSSLRSEDTAVYYCATAVGAGWFDTWGQGTLVTVSS VL: DIVMTQSPDSLAVSLGERATINCKSSQSVWFDPNNKNYLAWYQQKPGQPPKLLIYWASTRESGVPDRFSGSGSGTDFTLTISSLQAEDVAVYYCQQYFEEPYTFGQGTRLEIK ; hA/hB binding ratio on HEK293F observed: 6.5

// hA/hB binding ratio on HEK293F value for X11 (antibody, human IgG4, V domains shown, conditioned media in the HEK293F assays) VH: QVQLVQSGAEVKKPGSSVKVSCKASGYNFLNYDVNWVRQAPGQGLEWMGGIIPIFGTANYAQKFQGRVTITADESTSTAYMELSSLRSEDTAVYYCATGVGAGWFDPWGQGTLVTVSS VL: DIVMTQSPDSLAVSLGERATINCKSSQSVYFSENNKNYLAWYQQKPGQPPKLLIYWASTRESGVPDRFSGSGSGTDFTLTISSLQAEDVAVYYCQQYYEEPYTFGQGTRLEIK : 79.8

Consider X20 (antibody, human IgG4, V domains shown, conditioned media in the HEK293F assays) VH: QVQLVQSGAEVKKPGSSVKVSCKASGYNFLHYDVNWVRQAPGQGLEWMGGIIPIFGTANYAQKFQGRVTITADESTSTAYMELSSLRSEDTAVYYCATAVGAGWFDPWGQGTLVTVSS VL: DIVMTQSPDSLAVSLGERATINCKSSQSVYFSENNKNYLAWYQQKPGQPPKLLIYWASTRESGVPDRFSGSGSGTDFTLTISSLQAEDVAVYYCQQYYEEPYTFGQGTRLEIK . Its measured hA/hB binding ratio on HEK293F is 6.7
